substrate: gfPET; assay: Proxy for plastic degradation [Released monomer concentration (HPLC/LC-MS) (TPA+MHET+BHET)]; settings: 55 °C
Below, each of the proteins is paired with its reported Proxy for plastic degradation value.
In your response, put the unit directly after the numeric value.

# example entries with known answers
1) unnamed (protein) MANPYERGPDPTVQSIEAVRGPFSVSETNVSRLVVTGFGGGTIYYPRDTSQGTFGAVAIAPGFTASEGSMAWYGPRIASQGFVVFTIDTLTRLDQPDSRGRQLLAALDYLTQRSSVRSRIDSSRLAVMGHSMGGGGSLEASESRPSLKASIPLTPWNLKKNWRNNRVPTLIVGAENDSIASVRTHAEPFYESIPSTTNKAYLELNNATHFAPNISNTTIAKYSISWLKRFVDNDTRYEQFLCPPPRPDRDIEEYRCTCPY ... 0.22 mmol/h
2) unnamed (protein) MENPYERGPDPTESSIEAVRGPFAVAQTTVSRLQADGFGGGTIYYPTDTSQGTFGAVAISPGFTAGQESIAWLGPRIASQGFVVITIDTITRLDQPDSRGRQLQAALDHLRTNSVVRNRIDPNRMAVMGHSMGGGGALSAAANNTSLEAAIPLQGWHTRKNWSSVRTPTLVVGAQLDTIAPVSSHSEAFYNSLPSDLDKAYMELRGASHFVSNTPDTTTAKYSIAWLKRFVDNDLRYEQFLCPAPDDFAISEYRATCPF ... 0.11 mmol/h
3) unnamed (protein) MANPYERGPAPTTSSIEASRGPFAIASVTVSRSSVSGFGGGTIYYPRDTSEGTFGAVAIAPGFTADEGSMAWYGPRIASQGFVVFTIDTITRLDQPDSRGRQLLAALDYLTQRSSVRSRIDSSRLAVMGHSMGGGGSLEASVSRPSLKAAIPLTPWNLKKNWRDVRVPTLIVGAESDSIASVRTHAEPFYESIPSTTNKAYLELNNATHFAPNISNTTIAKYSISWLKRFVDNDTRYEQFLCPPPRPDRDIEEYRSTCPH ... 0.2 mmol/h

Next, consider the following protein.
Enquiry: Fill in Proxy for plastic degradation for record unnamed (protein) MDNPYERGPDPTTQSVEAARGPYAVSQITVGGQFGSYSGGTIYYPTSTTDGKFGAVAIAPGFLSFQSSVAWLGPRIASQGFVVMTIDTGTIFDQPAQRGDQLLDALDFLTQRSSVKDRIDPNRLAVAGWSMGGGGSLEAAADRPSLKAAIPMAGWNLNTNWSRLTTPVLVVGVQNDLIAPVAMHSEPFYNSIRSEKAYLELAGGSHFTVTSANTPQAKLMISWLKRFVDNDTRYEQFICPGPSRGFSVSEYRSTCPF
Return: 0.18 mmol/h

Origin of the recorded values: the PETadex activity labels (doi:10.1002/cssc.202101062)
